tested on: ER-alpha MCF7; test: ER-alpha MCF7 HCS EC50; stated as measured by in vitro cell proliferation assays of Examples 902 and 903; type: cell-based; details: Homo sapiens, MCF7, MCF7 cells; Table 2
OUTCOME MEASURE: EC50 (nM)
# output: bare number, implied unit nM

Observe how each entry below is paired with its result.
>>> df
                              smiles_string  outcome_measure  reported
0  C[C@H](CN1[C@H](c2c(F)cc(OC3CN(CCCF)C3)cc2F)c2[nH]c3ccccc3c2C[C@H]1C)C(=O)O             EC50         1
1  C[C@@H]1Cc2c([nH]c3ccccc23)[C@@H](c2ccc(NCCN3CC(CF)C3)cc2F)N1CC(C)(C)F             EC50    0.0253
2  C[C@H](O)CN1[C@H](c2c(F)cc(OC3CN(CCCF)C3)cc2F)c2[nH]c3ccccc3c2C[C@H]1C             EC50     0.359
3  C[C@@H]1Cc2c([nH]c3ccccc23)[C@@H](c2c(F)cc(OC3CN(CC4CC4)C3)cc2F)N1CC(C)(C)F             EC50     0.216
4  Cc1cc(OC2CN(CCCF)C2)ccc1[C@@H]1c2[nH]c3ccccc3c2C[C@@H](C)N1CC(C)(C)F             EC50      1.69
5  C[C@@H]1Cc2c([nH]c3ccccc23)[C@@H](c2ccc(OCCN3CC[C@@H](CF)C3)cc2)N1CC(C)(C)F             EC50     0.275

Now take the following molecule into account.
Consider the molecule shown here: C[C@@H]1Cc2c([nH]c3ccccc23)[C@@H](c2ccc(OCCN3CC(CF)C3)cc2F)N1CC(C)(C)F What is its recorded EC50?
0.0562

====

Reported values of EC50 for individual entries
tested on: ER-alpha MCF7; assay: ER-alpha MCF7 HCS EC50; stated as measured by in vitro cell proliferation assays of Examples 902 and 903; assay type: cell-based; settings: Homo sapiens, MCF7, MCF7 cells; Table 2
Field: numeric (nM). Do not append units.

Item under review: C[C@@H]1Cc2c([nH]c3cccc(F)c23)[C@@H](c2c(F)cc(NC3CN(CCCF)C3)cc2F)N1C[C@@](C)(F)CO . Reported EC50?
0.023

====

target: estrogen receptor alpha (ESR1) in MCF7 breast cancer cells (Homo sapiens (Human), UniProt P03372); experiment: Breast Cancer Cell ERa High Content Fluorescence Imaging Degradation Assay (Example 901); type: cell-based; details: 4 hours, plateau of maximal effect, 0% = DMSO, 100% change = 5 nM Fulvestrant
Sequence (P03372 whole entry): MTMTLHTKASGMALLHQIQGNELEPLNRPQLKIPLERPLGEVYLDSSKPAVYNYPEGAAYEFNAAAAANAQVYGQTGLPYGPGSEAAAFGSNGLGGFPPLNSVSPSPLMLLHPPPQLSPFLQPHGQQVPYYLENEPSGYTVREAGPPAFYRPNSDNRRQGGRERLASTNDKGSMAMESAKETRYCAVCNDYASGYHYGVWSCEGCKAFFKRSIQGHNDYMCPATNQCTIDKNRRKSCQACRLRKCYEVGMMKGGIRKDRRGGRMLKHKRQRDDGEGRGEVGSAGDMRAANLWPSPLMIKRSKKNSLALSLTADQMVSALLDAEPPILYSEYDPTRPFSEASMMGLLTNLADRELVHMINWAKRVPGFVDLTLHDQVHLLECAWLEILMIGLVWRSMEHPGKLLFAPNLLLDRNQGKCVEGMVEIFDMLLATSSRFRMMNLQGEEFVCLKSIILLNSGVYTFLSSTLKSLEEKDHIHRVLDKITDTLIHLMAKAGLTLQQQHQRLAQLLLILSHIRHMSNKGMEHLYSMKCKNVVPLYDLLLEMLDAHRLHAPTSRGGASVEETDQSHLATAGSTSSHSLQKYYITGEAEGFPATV
OUTCOME MEASURE: ER-alpha MCF7 HCS Sinf (%)
Please respond with the number in % and leave the unit unwritten.

Solved cases (10 shown):
                                   compound  unit_text  reported
0  C[C@@H](CO)CN1[C@H](c2c(F)cc(OCCN3CC(CF)C3)cc2F)c2[nH]c3ccccc3c2C[C@H]1C          %     −96.1
1  C[C@@H]1Cc2c([nH]c3ccccc23)[C@@H](c2c(F)cc(OCCN3CC(CF)C3)cc2F)N1CC1COC1          %     −95.5
2  C[C@@H]1Cc2c([nH]c3ccccc23)[C@@H](c2c(F)cc(OCCN3CC(CF)C3)cc2F)N1CC1CCC1          %     −94.8
3  C[C@@H]1Cc2c([nH]c3ccccc23)[C@@H](c2c(F)cc(OCCN3CC(CF)C3)cc2F)N1CC(C)(C)F          %     −98.9
4  C[C@@H]1Cc2c([nH]c3ccccc23)[C@@H](c2c(F)cc(OCCN3CC(CF)C3)cc2F)N1C(=O)C1CC(O)C1 (stereo partly shown)          %       −75
5  CCCN1CC(Oc2cc(F)c([C@@H]3c4[nH]c5ccccc5c4C[C@@H](C)N3CC(C)(C)F)c(F)c2)C1          %     −97.6
6  C[C@@H]1Cc2c([nH]c3ccccc23)[C@@H](c2c(F)cc(OCCN3CC(CF)C3)cc2F)N1S(C)(=O)=O          %     −94.4
7  C[C@@H]1Cc2c([nH]c3ccccc23)[C@@H](c2c(F)cc(OC3CN(CCCCl)C3)cc2F)N1CC(C)(C)F          %     −90.4
8  C[C@@H]1Cc2c([nH]c3ccccc23)[C@@H](c2c(F)cc(OCCN3CCCC3)cc2F)N1CC(C)(C)F          %     −71.7
9  C[C@@H]1Cc2c([nH]c3ccccc23)[C@@H](c2ccc(OCCN3CC(CF)C3)cc2F)N1CC(C)(C)F          %     −96.3

# ER-alpha MCF7 HCS Sinf (%) lookup, item C[C@@H]1Cc2c([nH]c3ccccc23)[C@@H](c2c(F)cc(OCCN3CC(CF)C3)cc2F)N1C1COC1
−85

// same read-out, input: C[C@@H]1Cc2c([nH]c3ccccc23)[C@@H](c2c(F)cc(OC[C@H](C)N3CC[C@@H](CF)C3)cc2F)N1CC(C)(C)F
−79.3

C[C@@H]1Cc2c([nH]c3ccccc23)[C@@H](c2c(F)cc(OCCN3CC(CF)C3)cc2F)N1C(=O)C(C)(C)O ?
−97.8

Item: C[C@@H]1Cc2c([nH]c3ccccc23)[C@@H](c2c(F)cc(OCCN3CC(C(F)F)C3)cc2F)N1CC(C)(C)F
−94

Could you do the same for CC(=O)N1[C@H](c2c(F)cc(OCCN3CC(CF)C3)cc2F)c2[nH]c3ccccc3c2C[C@H]1C , please?
−91

C[C@@H]1Cc2c([nH]c3ccccc23)[C@@H](c2c(F)cc(OCCN3CC[C@@H](CF)C3)cc2F)N1CC(C)(C)F ?
−86.5

Same question, C[C@@H]1Cc2c([nH]c3ccccc23)[C@@H](c2c(F)cc(OCCN3CCCCC3)cc2F)N1CC(C)(C)F this time
−72.2

# iterate: C[C@@H]1Cc2c([nH]c3ccccc23)[C@@H](c2c(F)cc(OCCN3CC(CF)C3)cc2F)N1C(=O)C(C)(C)F
−95.4

Next record, please: C[C@@H]1Cc2c([nH]c3ccccc23)[C@@H](c2c(F)cc(OCCN3CC(CO)C3)cc2F)N1CC(C)(C)F
−71.3

Now give it for CC(C)C(=O)N1C(c2c(F)cc(OCCN3CC(CF)C3)cc2F)c2[nH]c3ccccc3c2CC1(C)C (stereo not shown) too.
−90

Param item: C[C@@H]1Cc2c([nH]c3ccccc23)[C@@H](c2c(F)cc(OC3CN(CCCF)C3)cc2F)N1CC(C)(C)F
−100

Can you handle CC(C)C(=O)N1[C@H](c2c(F)cc(OCCN3CC(CF)C3)cc2F)c2[nH]c3ccccc3c2C[C@H]1C next?
−91.8
